- Species on record: Homo sapiens
- test: Selectivity ratio of Ki for recombinant human adenosine A2A receptor to Ki for recombinant human adenosine A1 receptor
measure: Ratio Ki
// no unit string in output, number only

Cc1cc(C)n(C[C@H]2O[C@@H](n3cnc4c(NC5CC6CCC5C6)nc(Cl)nc43)[C@H](O)[C@@H]2O)n1 (mixture of isomers)	2170
Cc1cc(C)n(C[C@H]2O[C@@H](n3cnc4c(NC5CCCC5)nc(Cl)nc43)[C@H](O)[C@@H]2O)n1	548

**Q:** Query: Ratio Ki; subject: Cc1cc(C)n(C[C@H]2O[C@@H](n3cnc4c(NC5CC6CCC5C6)ncnc43)[C@H](O)[C@@H]2O)n1 (mixture of isomers)
**A:** 765

**Q:** Next entry: `Cc1cc(C)n(C[C@H]2O[C@@H](n3cnc4c(N[C@@H]5CCOC5)ncnc43)[C@H](O)[C@@H]2O)n1`
**A:** 58

----------
- Organism: Homo sapiens
- test: Selectivity ratio of Ki for recombinant human adenosine A2A receptor to Ki for recombinant human adenosine A1 receptor
Lab note: compare Ratio Ki with 700, writing Condition met if less and Condition not met if equal or more.

Would you please look over these solved cases?
Cc1cc(C)n(C[C@H]2O[C@@H](n3cnc4c(Nc5ccc(Cl)cc5F)nc(Cl)nc43)[C@H](O)[C@@H]2O)n1	Condition not met
O[C@@H]1[C@H](O)[C@@H](CCl)O[C@H]1n1cnc2c(N[C@@H]3CCOC3)ncnc21	Condition not met
Cc1cc(C)n(C[C@H]2O[C@@H](n3cnc4c(Nc5ccc(Cl)cc5F)ncnc43)[C@H](O)[C@@H]2O)n1	Condition met

**Q:** Is it true that Ratio Ki reported for `O[C@@H]1[C@H](O)[C@@H](CCl)O[C@H]1n1cnc2c(Nc3ccc(Cl)cc3F)ncnc21` is less than 700?
**A:** Condition not met

**Q:** Next entry: `Cc1cc(C)n(C[C@H]2O[C@@H](n3cnc4c(N[C@@H]5CCOC5)nc(Cl)nc43)[C@H](O)[C@@H]2O)n1`
**A:** Condition met

----------
Each item that follows carries a reported Ratio Ki.
- Species: Homo sapiens
- test: Selectivity ratio of Ki for recombinant human adenosine A2A receptor to Ki for recombinant human adenosine A1 receptor
// no unit string in output, number only

Observe how each entry below is paired with its result.
O[C@@H]1[C@H](O)[C@@H](CCl)O[C@H]1n1cnc2c(N[C@@H]3CCOC3)nc(Cl)nc21	2480
O[C@@H]1[C@H](O)[C@@H](CCl)O[C@H]1n1cnc2c(Nc3ccc(Cl)cc3F)nc(Cl)nc21	175

// moving on: another record for Ratio Ki
**Q:** Query: Ratio Ki; subject: `Cc1cc(C)n(C[C@H]2O[C@@H](n3cnc4c(NC5CCCC5)ncnc43)[C@H](O)[C@@H]2O)n1`
**A:** 126

Reference for the values: ChEMBL document CHEMBL4024784
